Assay summary: Half life in H2O/D2O at 37 degC by 1H-NMR spectroscopic analysis
Format: ADME

Compound	half-life (h)
COCCOCCOCCOC(=O)CN1C(=O)C2(C)C=C(C)C1(C)OO2 (stereo not given)	15
COCCOCCOCCOC(=O)CN1C(=O)C2C=CC1(C)OO2 (stereo not given)	4
COCCOCCOCCOC(=O)CN1C(=O)C2(C)C=CC1(C)OO2 (stereo not given)	4
COCCOCCOCCOC(=O)CN1C(=O)C2(C)C=C(C)C1OO2 (stereo not given)	13
COCCOCCOCCOC(=O)CN1C(=O)C2C=CC1OO2 (stereo not given)	0.5
